- assayed-system: T1, NY-ESO-1 peptide on HLA-A*02:01 (human)
- T1 peptide: SLLMWITQC
- test-details: multimer staining
endpoint-label: binding result

// fetch binding result given entry TCR063 (TCR, V domains shown) Valpha: QKEVEQNSGPLSVPEGAIASLNCTYSDRGSQSFFWYRQYSGKSPELIMSIYSNGDKEDGRFTAQLNKASQYVSLLIRDSQPSDSATYLCAVNILASGGSYIPTFGRGTSLIVHP Vbeta: ETGVTQTPRHLVMGMTNKKSLKCEQHLGHNAMYWYKQSAKKPLELMFVYNFKEQTENNSVPSRFSPECPNSSHLFLHLHTLQPEDSALYLCASSHGTGYNYGYTFGSGTRLTVV recognises

Check the records and state binding result for TCR184 (TCR, V domains shown) Valpha: DQQVKQNSPSLSVQEGRISILNCDYTNSMFDYFLWYKKYPAEGPTFLISISSIKDKNEDGRFTVFLNKSAKHLSLHIVPSQPGDSAVYFCAARKNYGGSQGNLIFGKGTKLSVKP Vbeta: DAGVTQSPTHLIKTRGQQVTLRCSPISGHKSVSWYQQVLGQGPQFIFQYYEKEERGRGNFPDRFSARQFPNYSSELNVNALLLGDSALYLCASSLGSYDYTFGSGTRLTVV recognises

Given the binder TCR018 (TCR, V domains shown) Valpha: AQTVTQSQPEMSVQEAETVTLSCTYDTSESDYYLFWYKQPPSRQMILVIRQEAYKQQNATENRFSVNFQKAAKSFSLKISDSQLGDAAMYFCAYRSANSGYALNFGKGTSLLVTP Vbeta: ETGVTQTPRHLVMGMTNKKSLKCEQHLGHNAMYWYKQSAKKPLELMFVYNFKEQTENNSVPSRFSPECPNSSHLFLHLHTLQPEDSALYLCASSQAHYTEAFFGQGTRLTVV , write its reported binding result. recognises
